# target_entity: T1, Anti-CD28 scFv (VH-linker 1-VL) (biotinylated (site not stated))
# T1 construct: biotinylated and captured on neutravidin coated plates in the phage ELISA
# protocol: phage ELISA, captured biotinylated scFv; background signal 0.062

>  <binder>
MHWCPMDQWSNCFN [Phage-56]

>  <Phage binding ELISA CD28 scFv signal>
0.515

$$$$
>  <binder>
MDWCPIDLWHLCFY [Phage-90]

>  <Phage binding ELISA CD28 scFv signal>
2.59

$$$$
>  <binder>
MDWCPRDLWVHCFA [Phage-29]

>  <Phage binding ELISA CD28 scFv signal>
2.55

$$$$
>  <binder>
MAWCPRDKWSECFS [Phage-41]

>  <Phage binding ELISA CD28 scFv signal>
0.853

$$$$
